Assay: Rifampin interaction study
Assay type: in vivo, human
Settings: both, human, plasma, po, 200 mg
Readout Name: half-life (h)
Answer format: numeric, h implied, no suffix.

Identify measured half-life corresponding to CCN1CCN(Cc2ccc(Nc3ncc(F)c(-c4cc(F)c5nc(C)n(C(C)C)c5c4)n3)nc2)CC1
25.2

====

Assay: Measured physicochemical properties
Conditions: pKa 2 (basic)
Readout Name: pKa
Lab note: write the figure by itself, no unit.

Identify measured pKa corresponding to CCN1CCN(Cc2ccc(Nc3ncc(F)c(-c4cc(F)c5nc(C)n(C(C)C)c5c4)n3)nc2)CC1
4.48

====

Test: Absolute bioavailability
Assay type: in vivo
Conditions: human, plasma, iv, 0.4 mg
Readout Name: clearance (mL/min)
Answer format: numeric, mL/min implied, no suffix.

Identify measured clearance corresponding to CCN1CCN(Cc2ccc(Nc3ncc(F)c(-c4cc(F)c5nc(C)n(C(C)C)c5c4)n3)nc2)CC1
400

====

Experiment: Fraction unbound in plasma
Assay type: in vitro ADME
Settings: human
Readout Name: fraction unbound
Lab note: write the figure by itself, no unit.

Identify measured fraction unbound corresponding to CCN1CCN(Cc2ccc(Nc3ncc(F)c(-c4cc(F)c5nc(C)n(C(C)C)c5c4)n3)nc2)CC1 [Abemaciclib]
0.0557

====

Assay: Absolute bioavailability
Assay type: in vivo
Details: human, plasma
Readout Name: half-life (h)
Answer format: numeric, h implied, no suffix.

Identify measured half-life corresponding to CCN1CCN(Cc2ccc(Nc3ncc(F)c(-c4cc(F)c5nc(C)n(C(C)C)c5c4)n3)nc2)CC1
29.3

====

Test: Measured physicochemical properties
Conditions: octanol/water
Readout Name: logP

Identify measured logP corresponding to CCN1CCN(Cc2ccc(Nc3ncc(F)c(-c4cc(F)c5nc(C)n(C(C)C)c5c4)n3)nc2)CC1
3.36

====

Test: Clarithromycin interaction study
Format: in vivo
Conditions: both, human, plasma, po, 50 mg
Readout Name: half-life
Phrase the answer as number then unit, nothing more needed.

Identify measured half-life corresponding to CCN1CCN(Cc2ccc(Nc3ncc(F)c(-c4cc(F)c5nc(C)n(C(C)C)c5c4)n3)nc2)CC1
28.8 h

Cited source for all entries: paper PMC7318171
